Reported pKd is given for each of the following binders.
- system_under_test: Biotinylated recombinant human CD3εδ (Acro Biosystems, CDD-H82W6) (human) (UniProt P07766)
- Sequence (P07766 23-126, stated change not applied, chain 1 of 2): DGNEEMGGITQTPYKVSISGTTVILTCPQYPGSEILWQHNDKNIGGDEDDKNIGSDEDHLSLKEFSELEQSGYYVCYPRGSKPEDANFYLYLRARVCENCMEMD
- Sequence (P04234 22-105, stated change not applied, chain 2 of 2, further chain): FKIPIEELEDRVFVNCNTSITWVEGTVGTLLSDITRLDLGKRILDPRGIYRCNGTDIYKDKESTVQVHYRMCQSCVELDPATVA
- protocol: Octet BLI, biotinylated CD3εδ on streptavidin sensors, 1:1 model
To interpret pKd, take it as minus log10 of a concentration measured in moles per litre.

Example entries and their recorded answers appear below.
{"columns": ["binder", "pKd"],
 "data": [
  ["EGFR-CD3 DuetMab with anti-CD3 variant AZ Vκ 26 + AZ VH SN75 (bispecific antibody, part only; not given: anti-EGFR arm, constant regions, V domains shown, not shown: another chain or arm of the molecule; a dimerising Fc or GST; small tags and cut ends) VH: EVQLVESGGALVKPGGSLRLSCAASGFTFSNAWMHWVRQAPGKQLEWVAQIKDRSQTYATYYAESVKGRFTISRDDSKNTLYLQMNSLKTEDTAVYYCRGVYYANAPFDYWGQGTLVTVSS VL: DIVMTQSPLSLPVTPGEPASISCRSSQSLVHNTGNTYLSWYLQKPGQSPQSLIYKVSNRASGVPDRFSGSGSGTDFTLKISRVEAEDVGVYYCGQGTQAPFSFGSGTKVEIK", 6.02],
  ["EGFR-CD3 DuetMab with anti-CD3 variant AZ Vκ 29 + AZ VH SN82 (bispecific antibody, part only; not given: anti-EGFR arm, constant regions, V domains shown, not shown: another chain or arm of the molecule; a dimerising Fc or GST; small tags and cut ends) VH: EVQLVESGGALVKPGGSLRLSCAASGFTFSNAWMHWVRQAPGKQLEWVAQIKDRSQTYATYYAESVKGRFTISRDDSKNTLYLQMNSLKTEDTAVYYCRGVYYANTPFDYWGQGTLVTVSS VL: DIVMTQSPLSLPVTPGEPASISCRSSQSLVHNTGNTYLSWYLQKPGQSPQSLIYKVSNRASGVPDRFSGSGSGTDFTLKISRVEAEDVGVYYCGQGTQFPFTFGSGTKVEIK", 5.73],
  ["EGFR-CD3 DuetMab with anti-CD3 variant AZ Vκ 26 + AZ VH E82 (bispecific antibody, part only; not given: anti-EGFR arm, constant regions, V domains shown, not shown: another chain or arm of the molecule; a dimerising Fc or GST; small tags and cut ends) VH: EVQLVESGGALVKPGGSLRLSCAASGFTFTEAWMHWVRQAPGKQLEWVAQIKDRSQTYATYYAESVKGRFTISRDDSKNTLYLQMNSLKTEDTAVYYCRGVYYANTPFDYWGQGTLVTVSS VL: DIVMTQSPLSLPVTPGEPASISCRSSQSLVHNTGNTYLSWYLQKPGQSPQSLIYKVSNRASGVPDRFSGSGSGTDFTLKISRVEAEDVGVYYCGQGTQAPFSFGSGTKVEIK", 5.41]
]}

Could you now look at the following binder, please?
Given the entry EGFR-CD3 DuetMab with anti-CD3 variant AZ Vκ 29 + AZ VH E79 (bispecific antibody, part only; not given: anti-EGFR arm, constant regions, V domains shown, not shown: another chain or arm of the molecule; a dimerising Fc or GST; small tags and cut ends) VH: EVQLVESGGALVKPGGSLRLSCAASGFTFTEAWMHWVRQAPGKQLEWVAQIKDRSQTYATYYAESVKGRFTISRDDSKNTLYLQMNSLKTEDTAVYYCRGVYYAVTPFDYWGQGTLVTVSS VL: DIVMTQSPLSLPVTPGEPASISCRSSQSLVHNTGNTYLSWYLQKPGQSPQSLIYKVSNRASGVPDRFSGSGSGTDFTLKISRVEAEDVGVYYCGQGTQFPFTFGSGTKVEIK , report its measured pKd.
5.34

Hello, the source for this data is patent US20250019438A1, in case you need it.
